- Assayed target: Replicative DNA helicase DnaB (Mycobacterium tuberculosis)
- Sequence (P9WMR3 1-399, added parts left off): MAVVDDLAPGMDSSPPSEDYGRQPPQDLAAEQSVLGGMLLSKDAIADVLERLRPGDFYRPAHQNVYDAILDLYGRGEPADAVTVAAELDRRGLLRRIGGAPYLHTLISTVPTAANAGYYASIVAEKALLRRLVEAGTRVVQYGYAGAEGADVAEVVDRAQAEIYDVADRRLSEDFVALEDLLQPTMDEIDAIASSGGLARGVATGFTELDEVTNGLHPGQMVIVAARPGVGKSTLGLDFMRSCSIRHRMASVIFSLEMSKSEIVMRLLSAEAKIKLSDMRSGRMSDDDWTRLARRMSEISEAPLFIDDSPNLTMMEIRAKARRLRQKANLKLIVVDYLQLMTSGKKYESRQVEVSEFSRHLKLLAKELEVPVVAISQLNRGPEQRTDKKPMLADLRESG
- Experiment: DnaB intein splicing inhibitors, dose response, biochemical, cell-free fluorescence (AID 449749)
- Assay type: functional
Calls of active or inactive are those of the source.
Outcome codes: active, inactive

| Compound | Assigned category |
| --- | --- |
| CCCc1n[nH]c2c1C(c1ccc(OC)cc1OC)C(C#N)=C(N)O2 (stereo unspecified) | active |
| CCCCOC(=O)CNc1nnc(SCC(=O)OCC)nc1O | active |
| COc1ccc(-c2cc(=O)n(CCC#N)[nH]2)cc1 | active |
| COc1ccc(C2C(C#N)=C(N)Oc3[nH]nc(C)c32)cc1CN1CCN(c2ccc(F)cc2)CC1 (stereo unspecified) | active |
| O=C(CCl)N(c1ccccc1)c1c[nH]c2ccccc12 | active |
| CCOC(=O)/C=c1\s/c(=C(\C#N)C(N)=O)n(-c2ccccc2)c1=O | active |
| CCN(c1ccccc1)c1cc2ccccc2c(=O)[nH]1 | inactive |
| Cn1c(=O)[nH]c(=O)c2c1nc([N+](=O)[O-])n2Cc1ccccc1 | active |
| O=C1NC(=S)N(C2CCCCC2)C(=O)/C1=C/NNC(=O)c1ccccc1O | active |
| COc1cccc(-n2nc(C#N)c(Cl)cc2=O)c1 | active |
| CCOC(=O)c1c(C)oc2c1C(=O)c1ccccc1C2=O | active |
| FC(F)(F)c1nnc(-c2ccccc2)nc1Sc1ccccc1 | active |
| ClCc1nnc(-c2cc3c(s2)CCCC3)o1 | active |
| Cc1n[nH]c2c1C1(CCN(C(=O)c3ccccc3)CC1)C(C#N)=C(N)O2 | active |
| CCCCN(C(=O)c1cccc2c(=O)c(C)c(-c3ccccc3)oc12)c1ccccc1 | active |
| Cc1ccc(-c2[nH]nc3c2C(c2ccc(OC(=O)N4CCOCC4)cc2)C(C#N)=C(N)O3)cc1 (stereo unspecified) | active |
| O=C(NC1(O)C(=O)c2ccccc2C1=O)c1c(Cl)cccc1Cl | active |
| Oc1cc(-c2ccccc2)n[nH]1 | active |
| Oc1ccc(Nc2nc(-c3ccc(O)cc3)cs2)cc1 | active |
| CCOC(=O)c1ccc(CC2S/C(=C(\C#N)C(C)=O)NC2=O)cc1 (stereo unspecified) | inactive |
| COc1cc(/C=C2/C(=O)N(c3ccc(Br)cc3)N=C2C)cc(OC)c1OC | active |

* * *

- Assayed target: Microphthalmia-associated transcription factor (Homo sapiens)
- Sequence (O75030 whole entry): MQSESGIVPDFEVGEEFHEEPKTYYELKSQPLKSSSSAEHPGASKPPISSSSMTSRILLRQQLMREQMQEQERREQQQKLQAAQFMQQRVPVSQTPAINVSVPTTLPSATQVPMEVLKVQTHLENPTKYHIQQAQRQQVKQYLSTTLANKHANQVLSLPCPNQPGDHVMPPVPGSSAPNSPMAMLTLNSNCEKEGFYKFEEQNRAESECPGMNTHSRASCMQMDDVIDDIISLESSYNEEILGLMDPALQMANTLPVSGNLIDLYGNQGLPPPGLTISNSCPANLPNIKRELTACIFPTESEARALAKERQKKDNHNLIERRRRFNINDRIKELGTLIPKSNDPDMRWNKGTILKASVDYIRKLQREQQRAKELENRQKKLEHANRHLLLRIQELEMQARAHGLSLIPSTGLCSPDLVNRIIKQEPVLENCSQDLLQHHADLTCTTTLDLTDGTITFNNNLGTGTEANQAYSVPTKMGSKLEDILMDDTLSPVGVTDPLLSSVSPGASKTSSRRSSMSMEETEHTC
- Experiment: TRPM1 promoter luciferase signal decrease, dose response, MITF inhibitor project, cell-based, SK-MEL-5, cherry-picked, set 3 (AID 493073);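 further: SK-MEL-5 melanoma cells with luciferase driven by the MITF target TRPM1 promoter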
- Type: functional
Calls of active or inactive are those of the source.
List of AC50 values.

| Molecule smiles | AC50 |
| --- | --- |
| COc1ccc(-[n+]2cc(-c3ccc(C)cc3)n3c2SCC3)cc1 | 2.91 µM (active) |
| COc1ccc2oc(C(=O)Nc3ccc(S(=O)(=O)N(C)C4CCN(C)CC4)cc3)c(C)c2c1 | 13 µM (active) |
| CCOC(=O)c1c(C)oc2c1C(=O)c1ccccc1C2=O | 3.18 µM (active) |
| Cc1ccc(NC(=O)c2ccc([N+](=O)[O-])s2)cc1S(=O)(=O)N1CCOCC1 | 3.78 µM (active) |
| O=C(CCl)N(c1ccccc1)c1c[nH]c2ccccc12 | 5.09 µM (active) |

* * *

Each record here notes measured AC50.
- Assayed target: UniProt:Q03530
- Sequence (Q03530 whole entry): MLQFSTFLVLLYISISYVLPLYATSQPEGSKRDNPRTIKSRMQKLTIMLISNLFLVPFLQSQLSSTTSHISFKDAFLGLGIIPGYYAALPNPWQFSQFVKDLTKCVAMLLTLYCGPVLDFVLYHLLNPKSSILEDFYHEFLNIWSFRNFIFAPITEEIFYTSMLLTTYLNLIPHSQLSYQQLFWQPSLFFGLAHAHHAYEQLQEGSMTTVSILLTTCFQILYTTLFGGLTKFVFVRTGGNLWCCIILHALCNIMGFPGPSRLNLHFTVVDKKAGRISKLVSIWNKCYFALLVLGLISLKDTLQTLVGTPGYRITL
- Type: biochemical
Activity calls are given as the source filed them.

| Compound | AC50 |
| --- | --- |
| CCCCN=C(S)N=Nc1c(O)n(Cc2ccccc2)c2ccccc12 | 0.601 µM (active) |
| Cc1nc(N2CCOCC2)c2c(C)c(C(=O)Nc3ccc(C(F)(F)F)cc3)sc2n1 | 5.99 µM (active) |
| COc1ccc(C2=NN(C(=O)CCC(=O)O)C(c3cccs3)C2)cc1 (centres undefined) | 9.03 µM (active) |
| Cc1cccc2[nH]c3c(N4CCC5(CC4)OCCO5)ncnc3c12 | 13.7 µM (active) |

* * *

- Assayed target: Endoribonuclease toxin MazF (Escherichia coli K-12)
- Sequence (P0AE70 whole entry): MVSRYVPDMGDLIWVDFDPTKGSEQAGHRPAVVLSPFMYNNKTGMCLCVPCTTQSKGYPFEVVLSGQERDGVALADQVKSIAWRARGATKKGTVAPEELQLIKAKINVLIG
- Experiment: MazF toxin RNase activators, dose response, biochemical, fluorescence, single-stranded RNA substrate, uHTS hits (AID 588481)
- Type: functional
Activity calls are given as the source filed them.
Outcome codes: active, inactive

| Molecule smiles | Assigned category |
| --- | --- |
| Cn1c(=O)c2[nH]c(-c3ccccc3Cl)c(O)c2n(C)c1=O | inactive |
| Cc1ccc(Cl)c2c(N=Nc3ccccc3)c(O)[nH]c12 | active |
| Nc1c(C(=O)Nc2ccccc2)sc2nc3c(c(-c4ccco4)c12)CCC3 | active |
| Cc1ccc2c(n1)sc1c(-c3ccccc3)c(C#N)c(N)nc12 | inactive |

* * *

Observed AC50, system Cytochrome P450 2D6 (Homo sapiens).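 Further: CYP2D6 member of a cytochrome P450 panel assay.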

| Compound | AC50 |
| --- | --- |
| COc1ccc(C2C(C#N)=C(N)Oc3[nH]nc(C)c32)cc1CN1CCN(c2ccc(F)cc2)CC1 (stereo unspecified) | 25.1 µM (inconclusive) |
| CCN(CC)CCNC(=O)Cn1nc(-c2ccc(C)cc2)ccc1=O | 22.4 µM (inconclusive) |
| O=C(c1cccc(F)c1)N1CCC2(CC1)CCN(c1ccccn1)CC2 | 20 µM (inconclusive) |
| O=C(Nc1ncc(Cc2cccc(Cl)c2)s1)c1cccs1 | 7.08 µM (inconclusive) |
| COc1ccc(CNc2cc(-c3cccc(NS(C)(=O)=O)c3)ncn2)c(OC)c1 | 39.8 µM (inconclusive) |
| CC1=CC(C)(C)N=C(S)N1c1cccc(C)c1 | 6.31 µM (inconclusive) |

* * *

- Assayed target: Leucine aminopeptidase (Plasmodium falciparum 3D7)
- Sequence (Q8IL11 whole entry): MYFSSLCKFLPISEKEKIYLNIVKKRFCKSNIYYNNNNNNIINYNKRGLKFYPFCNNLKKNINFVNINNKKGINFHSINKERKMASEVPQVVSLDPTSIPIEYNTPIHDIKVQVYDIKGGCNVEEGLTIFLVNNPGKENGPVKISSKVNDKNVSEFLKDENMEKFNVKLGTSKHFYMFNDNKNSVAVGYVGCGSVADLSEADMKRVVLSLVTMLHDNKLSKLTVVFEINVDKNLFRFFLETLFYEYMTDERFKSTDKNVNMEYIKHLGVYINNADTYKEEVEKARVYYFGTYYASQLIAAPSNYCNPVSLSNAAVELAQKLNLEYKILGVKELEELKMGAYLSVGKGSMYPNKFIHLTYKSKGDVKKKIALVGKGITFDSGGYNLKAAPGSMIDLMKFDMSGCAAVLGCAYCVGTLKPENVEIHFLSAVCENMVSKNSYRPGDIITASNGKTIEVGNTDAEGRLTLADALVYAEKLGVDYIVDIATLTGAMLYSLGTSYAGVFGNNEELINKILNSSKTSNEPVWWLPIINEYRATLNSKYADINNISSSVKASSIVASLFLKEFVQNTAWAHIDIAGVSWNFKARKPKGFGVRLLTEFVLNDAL
- Experiment: P. falciparum M17LAP inhibitors, primary screen, biochemical, fluorogenic H-Leu-NHMec substrate, 1536-well (AID 1619)
- Format: functional
Active and inactive are the calls of the source.
Reported endpoint: IC50

| Molecule | Endpoint result |
| --- | --- |
| CC(C)c1ccc(C(=O)CSc2nc[nH]n2)cc1 | 33 µM (active) |
| Cc1c(O)c(S(=O)(=O)c2ccccc2)c(=O)n(-c2ccccc2)c1-c1ccccc1 | 9.98 µM (active) |
| COc1ccc(CCNC(=O)c2ccc3c(SCC(=O)O)c4c(nc3c2)CCCC4)cc1OC | 23.3 µM (active) |
| Cc1ccc(SC(C)C(=O)Nc2ccc(S(=O)(=O)N3CCOCC3)cc2)cc1 (centres undefined) | 21.2 µM (active) |
| Sc1n[nH]c(-c2ccccc2Br)n1 | 4.67 µM (active) |
| CCOC(=O)CSc1nnc(-c2ccco2)n1-c1ccc(C)cc1 | 37 µM (active) |
| N#Cc1c(NC(=O)C2CC(Cl)=CCC2C(=O)O)sc2c1CCCC2 (centres undefined) | < 1 µM (active) |
| O=C(CSc1nc[nH]n1)Nc1ccccc1C(=O)O | 35.6 µM (active) |
| Cc1ccc(Nc2nnc(SCC(=O)NC(Cc3c[nH]c4ccccc34)C(=O)O)s2)cc1 (centres undefined) | 3.25 µM (active) |

* * *

- Assayed target: Prothrombin (Bos taurus, UniProt P00735)
- Experiment: thrombin inhibition, dose response, biochemical, fluorescence polarization, uHTS hits (AID 602369)
- Assay type: functional
The source made the active and inactive calls.
Labels: active, inactive

| Molecule smiles | Assigned category |
| --- | --- |
| O=C(CCN1C(=O)/C(=C\c2cccs2)SC1=S)Nc1ccccn1 | active |
| O=C(NN=C1c2ccccc2-c2ccccc21)c1ccccn1 | inactive |
| O=C1NC(=S)N(C2CCCCC2)C(=O)/C1=C/NNC(=O)c1ccccc1O | active |
| O=C(Nc1nc(-c2nc3ccccc3s2)cs1)c1ccco1 | active |

* * *

Each entry below carries its reported IC50.
- Assayed target: Mannose-6-phosphate isomerase (Homo sapiens)
- Sequence (P34949 whole entry): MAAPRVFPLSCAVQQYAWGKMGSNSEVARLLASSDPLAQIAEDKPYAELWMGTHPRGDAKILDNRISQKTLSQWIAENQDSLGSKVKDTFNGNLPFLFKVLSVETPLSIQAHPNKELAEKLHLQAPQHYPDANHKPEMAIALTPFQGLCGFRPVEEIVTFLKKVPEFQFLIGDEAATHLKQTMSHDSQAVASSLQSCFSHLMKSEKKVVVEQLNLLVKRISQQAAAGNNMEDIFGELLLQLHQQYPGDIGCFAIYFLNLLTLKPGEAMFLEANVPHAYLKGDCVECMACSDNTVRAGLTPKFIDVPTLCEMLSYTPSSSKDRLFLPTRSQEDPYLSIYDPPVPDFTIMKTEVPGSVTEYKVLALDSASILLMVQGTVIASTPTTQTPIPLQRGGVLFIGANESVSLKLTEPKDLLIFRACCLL
- Experiment: human PMI inhibitors, high substrate, primary screen, biochemical, fluorescence intensity, high mannose 6-phosphate (AID 1220)
Active and inactive are the calls of the source.
Reported endpoint: IC50

| Molecule smiles | Endpoint result |
| --- | --- |
| Oc1cccc(/C=N/NC(=S)NCCN2CCOCC2)c1O | 23.6 µM (active) |
| C=CCNc1nc(NCc2ccccc2)c(C#N)c2c1CN(C)CC2 | > 50 µM (not active) |
| Oc1ccc(F)c2cccnc12 | 7.42 µM (active) |
| CC(C)c1ccc(C(=O)CSc2nc[nH]n2)cc1 | 9.69 µM (active) |
